Tested on: HT29, SW480, BxPC3, MCF7, and MDA-MB-231 cell lines
Format: cell-based, human
experimental conditions: 24 h
pIC50: −log10 of the molar value. No end group written: not given here.
quantity: pIC50

ATWAGPAKPRQIKIWFQNRRMKWKK [YJB05, reference compound] has a reported pIC50 of < 2.70
